Test system: MOLT-4
Test: NCI tumour cell line growth inhibition, 48 h
Calls of active or inactive are those of the source. Cut-off read from the data, not from the text of the source: active = GI50 up to about 1.1 µM and inactive = higher.
QUANTITY: GI50

Entry under review: COc1ccc2c(c1OC)CN1CCc3cc4c(cc3C1C2)OCO4 (stereo not drawn) [TETRAHYDROBERBERINE] . Reported GI50?
> 100 µM (inactive)

Please answer likewise for CC(=O)C(=[N+]=[N-])C(=O)N(C)CCC#N
> 10 µM (inactive)

Please answer likewise for O=C1Nc2ccccc2C12CCCC2
> 100 µM (inactive)

Please answer likewise for COc1ccccc1C1(C)SCc2nc3ccccc3n21 (stereo not drawn)
> 10 µM (inactive)

Please answer likewise for Cc1nn(C(=O)Cc2ccccc2)c2c1C(c1ccccc1[N+](=O)[O-])SC(=N)N2 (stereo not drawn)
> 100 µM (inactive)

Please answer likewise for CC(C)(C)N1CC2(CCCCC2)C1=O
> 100 µM (inactive)

Please answer likewise for O=C(/C=C1\N=C(c2ccccc2)N(c2ccc3c(c2)Sc2cc(N4C(=O)/C(=C/C(=O)/C=C/c5ccccc5)N=C4c4ccccc4)ccc2N3)C1=O)/C=C/c1ccccc1
41.4 µM (inactive)

Please answer likewise for CCCCN(CCCC)CC(C(C)=O)C(c1ccccc1)c1c(O)c2ccccc2oc1=O (stereo not drawn)
> 100 µM (inactive)

====

Give GI50 for every item shown.
System: BT-549
Assay: NCI tumour cell line growth inhibition, 48 h
Activity calls are given as the source filed them. Rule as the data show it: active = GI50 up to about 1.1 µM and inactive = higher.

Entry under review: CN(C)Cc1cc(C(=O)/C=C/c2ccc(/C=C/C(=O)c3cc(CN(C)C)c(O)c(CN(C)C)c3)cc2)cc(CN(C)C)c1O . Reported GI50?
18.6 µM (inactive)

Please answer likewise for Cc1nn(C(=O)c2ccc(Cl)cc2)c2c1C(c1ccccc1)SC(=N)N2 (stereo not drawn)
> 10 µM (inactive)

Please answer likewise for O=[N+]([O-])c1ccc2c(c1)Sc1ccccc1N2
> 100 µM (inactive)

Please answer likewise for Oc1ccc(/C=C/c2ccc3cccc(O)c3n2)cc1O
1.61 µM (inactive)

Please answer likewise for Cc1nn(C(=O)Cc2ccccc2)c2c1C(c1ccccc1[N+](=O)[O-])SC(=N)N2 (stereo not drawn)
> 100 µM (inactive)

Please answer likewise for CC1=C(O)C(O)=C(C2=C(O)C(O)=C(C)C(=O)C2=O)C(=O)C1=O
31 µM (inactive)

Please answer likewise for C/C(=N\Nc1nc2ccccc2o1)c1cc(C)ncn1
0.305 µM (active)

Please answer likewise for CCOC(=O)c1c(NC(=O)c2cccs2)sc2c1CCCC2
58.7 µM (inactive)

Please answer likewise for COC(=O)c1ccc(NCC2=CC(=O)C=CC2=O)cc1
13.6 µM (inactive)

Please answer likewise for NC(=O)C(=CN1C(=O)CC(=O)NC1=S)C(N)=O
> 100 µM (inactive)

Please answer likewise for Cc1ccc2c3ccc4c(c3n(C)c2c1)C(=O)C=CC4=O
3.32 µM (inactive)

Please answer likewise for N/N=C1\C(OC(=O)Nc2cccc(Cl)c2)=Nc2ccccc21
7.96 µM (inactive)

Please answer likewise for CC1CC[P+](c2ccccc2)(c2ccccc2)c2c1ccc1ccccc21 (stereo not drawn)
1.23 µM (inactive)

Please answer likewise for COc1ccccc1NS(=O)(=O)c1ccc2ncn(NS(=O)(=O)c3ccc(Cl)cc3)c(=O)c2c1
> 100 µM (inactive)

Please answer likewise for COC(=O)c1c(C)cccc1C1CN=NC12Cc1cc(C)cc(C)c1C2=O (stereo not drawn)
29.7 µM (inactive)

Please answer likewise for CC(C)(C)OC(=O)NCCCNC1(c2cc3ccccc3s2)CCCCC1
13.6 µM (inactive)

Please answer likewise for CO[C@@H]1[C@H](OC(=O)NC(=O)CCl)CC[C@]2(CO2)[C@H]1[C@@]1(C)O[C@@H]1CC=C(C)C
14.6 µM (inactive)

Please answer likewise for CCCSC1=N/C(=C\c2ccco2)C(=O)N1
> 100 µM (inactive)

Please answer likewise for Cc1ccc(/N=N/c2c(O)ccc3cc(S(=O)(=O)O)cc(S(=O)(=O)O)c23)cc1
> 100 µM (inactive)

Please answer likewise for NC(=O)NN=C1Cc2ccccc2C1
> 100 µM (inactive)

Please answer likewise for CC1(C)CN=C(Nc2ccc(F)c(F)c2)S1
> 100 µM (inactive)

Please answer likewise for CC1=Nc2ccccc2OC(C)=C1/N=N/c1ccc2[nH]c(C)nc2c1
> 100 µM (inactive)

Please answer likewise for COc1ccc(CC2c3cc(Oc4cc(CC5c6cc(OC)c(OC)cc6CCN5C)ccc4O)c(OC)cc3CCN2C)cc1 (stereo not drawn)
6.64 µM (inactive)

Please answer likewise for [N-]=[N+]=Nc1c(C=O)c(=O)n(-c2ccccc2)c2ccccc12
31.8 µM (inactive)

Please answer likewise for O=C(Cn1c2c(c3ccccc31)CCCC2)NC1CCCCC1
> 100 µM (inactive)

Please answer likewise for CC(=O)c1nc2ccccc2n1CC(=O)c1ccc(Cl)cc1
3.55 µM (inactive)

Please answer likewise for COc1ccc(NC/C=C/C(=C/COC(C)=O)OC(C)=O)cc1
1.59 µM (inactive)

Please answer likewise for COc1ccc(-n2cnc3c(N)nc(N)nc32)cc1
> 100 µM (inactive)

====

Tested on: MDA-MB-435
Experiment: NCI tumour cell line growth inhibition, 48 h
Activity calls are given as the source filed them. Cut-off read from the data, not from the text of the source: active = GI50 up to about 1.1 µM and inactive = higher.
Log the outcome using a class from active, inactive

What was the test verdict on CC1=C(O)C(O)=C(C2=C(O)C(O)=C(C)C(=O)C2=O)C(=O)C1=O ?
inactive

Please answer likewise for COc1ccc(CC2c3cc(Oc4cc(CC5c6cc(OC)c(OC)cc6CCN5C)ccc4O)c(OC)cc3CCN2C)cc1 (stereo unspecified)
inactive

Please answer likewise for CO[C@@H]1[C@H](OC(=O)NC(=O)CCl)CC[C@]2(CO2)[C@H]1[C@@]1(C)O[C@@H]1CC=C(C)C
inactive

Please answer likewise for Cc1cnc2[nH]c(-c3cccc(Cl)c3)cc(=O)c2c1
active

Please answer likewise for O=C1c2c(ccc3c2CCC3)CC12Cc1ccccc1C2
inactive

Please answer likewise for O=C(Nc1cccc2nsnc12)c1cc2c(cc1Cl)Sc1nccn1S2(=O)=O
inactive

Please answer likewise for CC#CC#C/C=C1/O[C@]2(CCC(OC(C)=O)CO2)[C@@H]2O[C@H]12 (stereo partly specified)
inactive

Please answer likewise for Nc1ncnc2c1ncn2C1OC(CO)C2OC21 (stereo unspecified)
inactive

Please answer likewise for COC(NC(=O)Nc1ccc(C)cc1)(C(F)(F)F)C(F)(F)F
inactive

Please answer likewise for Cc1nnc(Nc2ccccc2)o1
inactive

Please answer likewise for COC1CC(OC2OC(CO)C(O)C(O)C2O)/C(=C\C#N)C(O)C1OC (stereo unspecified)
inactive

Please answer likewise for COc1c(-c2nc3ccc(N4CCN(C)CC4)cc3[nH]2)cc(OC)c2[nH]c(CO)nc12
inactive

Please answer likewise for COc1ccc(NC/C=C/C(=C/COC(C)=O)OC(C)=O)cc1
inactive

Please answer likewise for CC1C2CCC3C(O)C2(CC(O)C2(O)C1CC(O)C2(C)C)CC3(C)O (stereo unspecified)
inactive

Please answer likewise for CC(=O)N(CN1C(=O)CCC1C(=O)O)c1cccc(O)c1 (stereo unspecified)
inactive

Please answer likewise for O=C([O-])C(O)C(O)C(=O)O.[K+] (stereo unspecified) [POTASSIUM HYDROGENTARTRATE]
inactive

Please answer likewise for CCCC(=O)Nc1cc(/C=C/C(=O)N2CC(CCl)c3c2cc(OC(C)=O)c2[nH]cc(C)c32)n(C)c1 (stereo unspecified)
active

Please answer likewise for CC12CC3(O)OC(O1)C1(COC(=O)c4ccccc4)C3CC21OC1OC(CO)C(O)C(O)C1O (stereo unspecified)
inactive

Please answer likewise for CCCSC1=N/C(=C\c2ccco2)C(=O)N1
inactive

Please answer likewise for COc1cc(/C=C2/Oc3c(OC)cccc3C2=O)ccc1O
inactive

Please answer likewise for COC(=O)Cc1c([C@H]2[C@H](CC(=O)OC)c3ccccc3N2C(C)=O)[nH]c2ccccc12
inactive

Please answer likewise for Cc1ccc(S(=O)(=O)N2CCC(C(=O)O)(c3ccccc3)CC2)cc1
inactive

Please answer likewise for BrCCC[P+](c1ccccc1)(c1ccccc1)c1ccccc1
inactive

Please answer likewise for O=C1CCC2(CC1CC[S+]([O-])c1ccccc1)OCCO2 (stereo unspecified)
inactive

Please answer likewise for C[S+](C)C1(c2ccccc2)C(=O)c2ccccc2C1=O
inactive

Please answer likewise for CSc1c(C(=O)Nc2ccc(C)cc2)c(N)n(N)c(=O)c1C#N
inactive

Please answer likewise for O=C1CCCC(=O)N1n1c(Cc2ccc(Cl)cc2)n[nH]c1=O
inactive

Please answer likewise for COc1ccc2nc3cc(Cl)ccc3c(NCCCNCCCNc3c4ccc(Cl)cc4nc4ccc(OC)cc34)c2c1
active

Please answer likewise for O=C(CCc1cc(O)cc(O)c1)NCCCNC(=O)CCc1cc(O)cc(O)c1
inactive

Please answer likewise for Cc1cc(Cc2cc(C)cc(C(C)(C)C)c2O)c(O)c(Cc2cc(C)cc(C(C)(C)C)c2O)c1
inactive

Please answer likewise for COc1cc(S(=O)(=O)Nc2nc(-c3ccc(/N=C/c4cccs4)cc3)cs2)ccc1Cl
inactive
